Assign pIC50 to each entry below.
# experimental-system: TNF-α converting enzyme (TACE) (Homo sapiens)
# Sequence (P78536 215-824): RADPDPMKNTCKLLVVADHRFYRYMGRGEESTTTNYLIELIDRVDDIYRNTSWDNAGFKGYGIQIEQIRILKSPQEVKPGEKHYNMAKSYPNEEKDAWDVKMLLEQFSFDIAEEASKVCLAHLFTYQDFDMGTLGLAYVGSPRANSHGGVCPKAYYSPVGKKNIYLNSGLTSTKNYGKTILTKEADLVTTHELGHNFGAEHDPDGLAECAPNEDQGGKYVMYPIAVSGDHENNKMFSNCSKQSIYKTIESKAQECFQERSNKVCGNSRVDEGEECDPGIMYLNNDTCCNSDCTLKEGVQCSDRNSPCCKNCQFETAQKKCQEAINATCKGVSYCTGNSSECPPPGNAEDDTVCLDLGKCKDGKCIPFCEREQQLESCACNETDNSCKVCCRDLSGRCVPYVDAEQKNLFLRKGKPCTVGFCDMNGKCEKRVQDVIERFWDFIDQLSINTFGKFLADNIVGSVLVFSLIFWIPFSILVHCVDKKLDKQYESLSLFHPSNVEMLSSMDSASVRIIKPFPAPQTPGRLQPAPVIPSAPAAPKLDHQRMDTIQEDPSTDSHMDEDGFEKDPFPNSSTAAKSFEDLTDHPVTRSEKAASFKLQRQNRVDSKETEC
# test-method-notes: Test procedure for measuring TACE inhibition (fluorescent peptidyl substrate)
# Assay type: biochemical
# measurement-parameters: Table 1
Answers are plain numbers, as −log10 of the molar value.

// known answers, use as guide
molecule | experimental-system | pIC50
CC#CCOc1ccc([S+]([O-])C(CCCCNC(=O)c2ccccc2CCc2ccccc2)C(=O)NO)cc1 (centres unmarked) [Example 25] | TNF-α converting enzyme (TACE) (Homo sapiens) | 7.36
CC#CCOc1ccc(S(=O)(=O)C(CCCCNC(=O)CNC(=O)c2nccc3ccccc23)C(=O)NO)cc1 (centres unmarked) [Example 68] | TNF-α converting enzyme (TACE) (Homo sapiens) | 7.67
CC#CCOc1ccc(SC(CCCCNC(=O)Cc2ccc(Cl)c(Cl)c2)C(=O)NO)cc1 (centres unmarked) [Example 16] | TNF-α converting enzyme (TACE) (Homo sapiens) | 7.60
CC#CCOc1ccc(SC(CCCCNC(=O)CNC(=O)Cc2csc3ccccc23)C(=O)NO)cc1 (centres unmarked) [Example 52] | TNF-α converting enzyme (TACE) (Homo sapiens) | 7.15
CC#CCOc1ccc(S(=O)(=O)C(CCCCNC(=O)CNC(=O)c2ccccc2CCc2ccccc2)C(=O)NO)cc1 (centres unmarked) [Example 64] | TNF-α converting enzyme (TACE) (Homo sapiens) | 7.38
CC#CCOc1ccc([S+]([O-])C(CCCCNC(=O)Cc2csc3ccccc23)C(=O)NO)cc1 (centres unmarked) [Example 32] | TNF-α converting enzyme (TACE) (Homo sapiens) | 7.33
CC#CCOc1ccc(SC(CCCCNC(=O)CNC(=O)C(c2ccccc2)c2ccccc2)C(=O)NO)cc1 (centres unmarked) [Example 49] | TNF-α converting enzyme (TACE) (Homo sapiens) | 7.27

Consider the record given below.
Task item: Would you kindly share the measured pIC50 for CC#CCOc1ccc([S+]([O-])C(CCCCNC(=O)CNC(=O)c2cnc3ccccc3c2)C(=O)NO)cc1 (centres unmarked) [Example 53] ?
Reply: 7.82
